The measured values listed here are drawn from ChEMBL document CHEMBL1201862.

Test system: LOX IMVI
Assay: NCI tumour cell line growth inhibition, 48 h
Calls of active or inactive are those of the source. No stated cut-off is given here; in the data, active = GI50 up to about 1.1 µM and inactive = higher.
readout_kind: GI50

Illustrative cases are given below, each with its answer.
compound	measured_target	assay_result
CC(C)(CN)SCc1ccccc1	LOX IMVI	> 100 µM (inactive)
CCN(CC)CCCC(C)Nc1ccnc(/C=C/c2ccc(Cl)cc2)c1 (configuration not stated)	LOX IMVI	1.26 µM (inactive)
CC(=O)Nc1ncc2c(n1)-c1ccccc1OC2c1ccccc1 (configuration not stated)	LOX IMVI	> 100 µM (inactive)
O=C1c2ccccc2-c2oc(=O)c3ccccc3c21	LOX IMVI	> 100 µM (inactive)
Cn1c(=O)c2nc(Nc3ccccc3)[nH]c2n(C)c1=O	LOX IMVI	> 10 µM (inactive)
CN(C)/C(=N/C(=S)Nc1ccccc1)SCc1ccccc1	LOX IMVI	42 µM (inactive)

Under LOX IMVI, report GI50 for CC(C)(CO)CNc1nc(N)nc(Cl)c1C=O
16.4 µM (inactive)
